# test: Antiproliferative activity against human NES-G4T cells assessed as inhibition of cell growth incubated for 72 hrs by MTT assay
# Format: toxicity, cell-based
reported.endpoint: IC50 at 72 h (µM)
Answer with a number only, understood to be in µM.

For COc1ccc(/N=C2/NC(C)(C)/C(=C/c3ccc(Br)cc3)S2)c([N+](=O)[O-])c1 the molecule record lists IC50 at 72 h as 202
